# Assayed System: Beta-3 adrenergic receptor (Homo sapiens, UniProt P13945)
# Sequence (P13945 whole entry): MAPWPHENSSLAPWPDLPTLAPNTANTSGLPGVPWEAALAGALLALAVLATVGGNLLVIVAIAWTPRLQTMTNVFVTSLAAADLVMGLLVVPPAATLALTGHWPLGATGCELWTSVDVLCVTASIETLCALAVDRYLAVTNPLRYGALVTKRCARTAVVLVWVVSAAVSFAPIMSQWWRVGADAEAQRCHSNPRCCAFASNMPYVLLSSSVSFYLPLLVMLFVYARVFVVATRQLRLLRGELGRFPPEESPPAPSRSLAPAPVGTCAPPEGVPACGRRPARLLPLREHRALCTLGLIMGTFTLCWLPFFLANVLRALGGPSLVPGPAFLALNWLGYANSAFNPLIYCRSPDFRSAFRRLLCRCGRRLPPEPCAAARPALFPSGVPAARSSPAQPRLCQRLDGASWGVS
# Test Details: Agonist activity as increasedn cAMP production in Chinese hamster ovary (CHO)cells expressing human beta-3 adrenergic receptor
Reported Property: EC50 (nM)

compound=CCCCCCc1nc(-c2ccc(S(=O)(=O)Nc3ccc(CCNC[C@H](O)c4cccnc4)cc3)cc2)no1 assayed_system="Beta-3 adrenergic receptor (Homo sapiens, UniProt P13945)" reported_property=EC50 observed_result=35

(1) O=S(=O)(Nc1ccc(CCNC[C@H](O)c2cccnc2)cc1)c1ccc(-c2noc(CCOC3CCCC3)n2)cc1
(2) CC(=O)CCCc1nc(-c2ccc(S(=O)(=O)Nc3ccc(CCNC[C@H](O)c4cccnc4)cc3)cc2)no1
(3) CCCc1nc(-c2ccc(S(=O)(=O)Nc3ccc(CCNC[C@H](O)c4cccnc4)cc3)cc2)no1
Arrange the 3 compounds from largest to smallest EC50. Provide the ranking by listing each label in its place in the requested order.
2, 3, 1
(2: 130 nM, 3: 87 nM, 1: 13 nM)

(a) CCCCCCCCc1nc(-c2ccc(S(=O)(=O)Nc3ccc(CCNC[C@H](O)c4cccnc4)cc3)cc2)no1
(b) CCCCCc1nc(-c2ccc(S(=O)(=O)Nc3ccc(CCNC[C@H](O)c4cccnc4)cc3)cc2)no1
(c) O=C(CCc1nc(-c2ccc(S(=O)(=O)Nc3ccc(CCNC[C@H](O)c4cccnc4)cc3)cc2)no1)N1CCCC1
Arrange the 3 compounds from largest to smallest EC50. Provide the ranking by listing each label in its place in the requested order.
c, a, b
(c: 120 nM, a: 54 nM, b: 23 nM)

(a) CCCCCCCc1nc(-c2ccc(S(=O)(=O)Nc3ccc(CCNC[C@H](O)c4cccnc4)cc3)cc2)no1
(b) CCC(=O)CCc1nc(-c2ccc(S(=O)(=O)Nc3ccc(CCNC[C@H](O)c4cccnc4)cc3)cc2)no1
Quick one: lower EC50, a or b ? Your answer should be the label of the entry you select.
a

(1) CC(C)CCCc1nc(-c2ccc(S(=O)(=O)Nc3ccc(CCNC[C@H](O)c4cccnc4)cc3)cc2)no1
(2) CCC(O)CCc1nc(-c2ccc(S(=O)(=O)Nc3ccc(CCNC[C@H](O)c4cccnc4)cc3)cc2)no1 (stereo partly specified)
Determine, for 1 and 2 , which has the greater value of EC50. Your answer should be the label of the entry you select.
2

###

# Test Details: Half life in rats
# Format: ADME, organism-based
# Assay Conditions: rat, in vivo
Reported Property: half-life (h)
Response body: numeric value in h, unit text excluded.

// lookup half-life for CCCCCc1nc(-c2ccc(S(=O)(=O)Nc3ccc(CCNC[C@H](O)c4cccnc4)cc3)cc2)no1
2.4

###

# Test Details: Oral bioavailability of intravenously administered compound (3 mg/kg) was tested in rats
# Type: ADME, organism-based
# Assay Conditions: rat, in vivo, intravenous
Reported Property: bioavailability (%)
Response body: numeric value in %, unit text excluded.

// lookup bioavailability for CCCCCc1nc(-c2ccc(S(=O)(=O)Nc3ccc(CCNC[C@H](O)c4cccnc4)cc3)cc2)no1
36

###

# Assayed System: Beta-2 adrenergic receptor (Homo sapiens, UniProt P07550)
# Sequence (P07550 whole entry): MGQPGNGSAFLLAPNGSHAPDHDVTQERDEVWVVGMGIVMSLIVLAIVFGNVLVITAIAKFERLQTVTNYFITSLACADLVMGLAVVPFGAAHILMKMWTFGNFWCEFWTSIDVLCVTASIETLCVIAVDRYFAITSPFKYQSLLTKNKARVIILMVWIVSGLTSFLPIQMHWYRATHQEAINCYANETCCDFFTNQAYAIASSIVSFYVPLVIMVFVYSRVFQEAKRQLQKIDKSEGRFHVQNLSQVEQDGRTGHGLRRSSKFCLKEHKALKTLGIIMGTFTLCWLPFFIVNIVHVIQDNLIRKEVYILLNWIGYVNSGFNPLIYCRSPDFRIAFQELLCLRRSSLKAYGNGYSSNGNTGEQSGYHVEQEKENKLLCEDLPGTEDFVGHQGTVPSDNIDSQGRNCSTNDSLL
# Test Details: Binding affinity towards Beta-2 adrenergic receptor prepared from CHO cells expressing the cloned human receptor in the presence of [125I]iodocyanopindolol
Reported Property: IC50 (µM)

molecule=CCCCc1nc(-c2ccc(S(=O)(=O)Nc3ccc(CCNC[C@H](O)c4cccnc4)cc3)cc2)no1 assayed_system="Beta-2 adrenergic receptor (Homo sapiens, UniProt P07550)" observed_result=6.5

(1) CCCc1nc(-c2ccc(S(=O)(=O)Nc3ccc(CCNC[C@H](O)c4cccnc4)cc3)cc2)no1
(2) CCC(O)CCc1nc(-c2ccc(S(=O)(=O)Nc3ccc(CCNC[C@H](O)c4cccnc4)cc3)cc2)no1 (some centres undefined)
(3) O=S(=O)(Nc1ccc(CCNC[C@H](O)c2cccnc2)cc1)c1ccc(-c2noc(CCOC3CCCC3)n2)cc1
Arrange the 3 molecules from largest to smallest IC50. Provide the ranking by listing each label in its place in the requested order.
2, 1, 3
(2: 24 µM, 1: 8.5 µM, 3: 2.67 µM)
